From: PubChem BioAssay AID588466

Answer each item with its documented binding response (% of DMSO).
biological target: Desmoglein-3 (Homo sapiens); test: inhibitors of anti-DSG3 scFv binding to DSG3, confirmation, biochemical, cherry pick 1, bead-based, flow cytometry (AID 588466); conditions: Protein G beads with DSG3, scFv-GFP binding, at 10 µM, active compounds read low;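 note: 100% = 2% DMSO vehicle and 0% = excess soluble DSG3 blocking control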
About 30 (1%) of roughly 2,100 compounds were called active. These entries were drawn from the full list.
Numbers only, in %.

>  <COMPOUND>
CCOC(=O)c1cc(-c2ccc(/C=C3/C(=O)N(c4ccc(C(=O)O)cc4)N=C3C)o2)ccc1Cl

>  <binding response (% of DMSO) (%)>
54.4

$$$$
>  <COMPOUND>
CCOC(=O)c1ccc(-c2nnc(-c3ccc(Cl)cc3Cl)o2)cc1

>  <binding response (% of DMSO) (%)>
100

$$$$
>  <COMPOUND>
NNc1nc2c(-c3ccc(Cl)cc3)nnn2c2ccccc12

>  <binding response (% of DMSO) (%)>
91.9

$$$$
>  <COMPOUND>
Cc1ccc(C)c(N2CCN(C(=O)Cc3cn(C)c4ccccc34)CC2)c1

>  <binding response (% of DMSO) (%)>
104

$$$$

Please state binding response (% of DMSO) for every compound in the list that follows.
1. CN(CCC1CCOCC1)C(=O)C1CCC(=O)N(CCc2ccccc2)C1 (stereo not given)
2. COC(=O)[C@]1(C)N[C@H](CN(C)C(=O)Nc2ccc(OC)cc2)[C@@H]2C(=O)N(C)C(=O)[C@@H]21

1: 101; 2: 95.3
